Hello, the source for this data is paper PMC9482650, in case you need it.

- tgt: PARD3B_2, Q8TEW8
- Sequence (Q8TEW8 376-471): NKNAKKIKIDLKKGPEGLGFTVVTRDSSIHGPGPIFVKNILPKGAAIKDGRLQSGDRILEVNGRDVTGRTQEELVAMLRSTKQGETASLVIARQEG
- protocol-description: holdup assay
- Design: key: below the threshold = too weak to quantify, mostly under pKd 3.1 to 4
- protocol-conditions: plain residues with an end cap or a label only (N-terminal biotin on a linker: ttds)
result-type: pKd

Example entries and their recorded answers appear below.
{"binder": "SSRTRRETQL [HPV16-E6, P03126]", "pKd": "below the threshold"}
{"binder": "SVWLRKETRV [CYSLTR2, Q9NS75]", "pKd": "below the threshold"}
{"binder": "STLTIFETAL [ABCC4, O15439]", "pKd": "below the threshold"}
{"binder": "QSARYRDTEL [TJP2, Q9UDY2]", "pKd": "below the threshold"}
{"binder": "RSLEEEESQL [GRASP, Q7Z6J2]", "pKd": "below the threshold"}

Now let's try a different one.
Requested read-out: pKd. Entry: PKTPPTDTSV [KIR3DL3, Q8N743]
4.37
